assay: Human HepG2 cell viability assay in 384 well format; format: toxicity, cell-based; set-up: dose 125 nL, time 70.5 hour; concentration not given beside the values; settings: HepG2 cells, read-out: Inhibition
propertyName: cytotoxicity at 70.5 h (%)
Respond numerically; units are % and should not be typed.

Q. Input O=C(CS(=O)(=O)C1CCCC1)NC(c1ccc(F)cc1)C1CC1 (stereo not drawn) , output reported cytotoxicity at 70.5 h.
A. 1.6

Q. Input CCS(=O)(=O)N1CCCC2(CCCC(=O)N2C)C1 (stereo not drawn) , output reported cytotoxicity at 70.5 h.
A. -9.96

Q. Input N#Cc1ccc(OC[C@]23COC[C@H]2CN(Cc2nccs2)C3)nc1 , output reported cytotoxicity at 70.5 h.
A. -4.7

----------
assay: Human HepG2 cell viability assay in 384 well format; type: toxicity, cell-based; parameters: dose 125 nL, time 70.5 hour; concentration not given beside the values; details: HepG2 cells, read-out: Inhibition
propertyName: cytotoxicity at 70.5 h (%)
Respond numerically; units are % and should not be typed.

Q. Input CCOCCC(=O)Nc1cc(C)cnc1OC , output reported cytotoxicity at 70.5 h.
A. 14.7

Q. Input Cc1nc(CSCCC(=O)Nc2cccc(N3CCNC3=O)c2)cs1 , output reported cytotoxicity at 70.5 h.
A. -0.129

Q. Input Cc1c(C(C)NC2CCOCC2)cnn1-c1ccc(F)cc1F (stereo unspecified) , output reported cytotoxicity at 70.5 h.
A. 9.85

Q. Input Cc1cccc(CN2CCC(N(C)Cc3nnc(C4CC4)n3C)C2)c1 (stereo unspecified) , output reported cytotoxicity at 70.5 h.
A. -1.59

Q. Input CC(C)Cc1ncc2c(n1)CN(c1nccc(N(C)C)n1)C2 , output reported cytotoxicity at 70.5 h.
A. -8.35

Q. Input Cc1nc2ccccn2c1CN1C[C@@H](CN(C)CCO)[C@@H](CO)C1 , output reported cytotoxicity at 70.5 h.
A. 5.92

Q. Input CN1CCC(CO[C@H]2CN(C(=O)c3cccn3C)[C@@H]3COC[C@H]23)CC1 , output reported cytotoxicity at 70.5 h.
A. -11.6

Q. Input Fc1cnc(N2CC[C@@H]3OC(COCc4cccnc4)CC[C@@H]32)nc1 (stereo partly specified) , output reported cytotoxicity at 70.5 h.
A. -4.57

Q. Input O=C(N[C@@H]1CCN(c2nc3ccccc3o2)C[C@H]1O)c1cnccn1 , output reported cytotoxicity at 70.5 h.
A. -9.1

Q. Input Cc1cnc(C)c(N2CCC(c3nccn3Cc3cscn3)CC2)n1 , output reported cytotoxicity at 70.5 h.
A. 14.9

Q. Input O=C(NC1CC1)[C@H]1COC[C@H]2CN(c3ncc(F)cn3)C[C@H]21 , output reported cytotoxicity at 70.5 h.
A. -8.95

Q. Input Cc1nc(CN2CCCC2c2c(C)nn(C)c2Cl)oc1C (stereo unspecified) , output reported cytotoxicity at 70.5 h.
A. 19.6

Q. Input CN(C)C(=O)N1CCC2(CC1)CNc1ccc(F)cc12 , output reported cytotoxicity at 70.5 h.
A. -2.37

Q. Input Cc1nc(Nc2ncccn2)cc(C2CCCN2C2CCOCC2)n1 (stereo unspecified) , output reported cytotoxicity at 70.5 h.
A. 1.98

Q. Input CC(C)C[C@@H](N)C(=O)N(C)Cc1csc(C(C)C)n1 , output reported cytotoxicity at 70.5 h.
A. 2.05

Q. Input Cc1ccc(CN2CCO[C@H]3[C@@H](OCc4cccnc4)CC[C@@H]32)o1 , output reported cytotoxicity at 70.5 h.
A. -14.9
